Test: Autosampler stability at 4 °C of extracted antibiotic-spiked plasma/CAMHB samples
Conditions: CAMHB extracted samples, 7 h autosampler 4 °C; MQC (nominal as E14)
Entries and their measured Mean accuracy (%), Table S8 follow.
Give your result in % as a bare value.

In [3]: df
Out[3]:
                               smiles_input                assay_readout  reported_result
0  C[C@H]1[C@H](NC(=O)/C(=N\OC(C)(C)C(=O)O)c2csc(N)n2)C(=O)N1S(=O)(=O)O  Mean accuracy (%), Table S8            107.5
1  C[C@H]1COc2c(N3CCN(C)CC3)c(F)cc3c(=O)c(C(=O)O)cn1c23  Mean accuracy (%), Table S8            103.4
2  NC(=O)[C@@H]1CC[C@@H]2CN1C(=O)N2OS(=O)(=O)O  Mean accuracy (%), Table S8            104.2
3                 C[C@@H]1O[C@@H]1P(=O)(O)O  Mean accuracy (%), Table S8             95.9
4  Cn1c(N)c(NC(=O)NCCN)c[n+]1CC1=C(C(=O)O)N2C(=O)[C@@H](NC(=O)/C(=N\OC(C)(C)C(=O)[O-])c3nsc(N)n3)[C@H]2SC1  Mean accuracy (%), Table S8            109.8

Query: // query Mean accuracy (%), Table S8 value for entry CN(C)c1cc(NC(=O)CNC(C)(C)C)c(O)c2c1C[C@H]1C[C@H]3[C@H](N(C)C)C(O)=C(C(N)=O)C(=O)[C@@]3(O)C(O)=C1C2=O
Result: 103.1

----------
Each entry below carries its reported Mean accuracy (%), Table S15.
Test: Long-term storage stability of antibiotics in combination with fosfomycin spiked in plasma/CAMHB (−30 °C, −80 °C)
Assay type: physicochemical
Settings: CAMHB, combination with fosfomycin, 2 weeks at -30 °C; HQC (nominal as E15)
Form entry: value (%) — number only.

                                   compound                 assay_readout  scale_unit  reported_result
0  CC(C)(O/N=C(\C(=O)N[C@@H]1C(=O)N2C(C(=O)[O-])=C(C[n+]3ccccc3)CS[C@H]12)c1csc(N)n1)C(=O)O  Mean accuracy (%), Table S15           %             97.6
1  C[C@]1(Cn2ccnn2)[C@H](C(=O)O)N2C(=O)C[C@H]2S1(=O)=O  Mean accuracy (%), Table S15           %             96.9
2  CN(C)c1cc(NC(=O)CNC(C)(C)C)c(O)c2c1C[C@H]1C[C@H]3[C@H](N(C)C)C(O)=C(C(N)=O)C(=O)[C@@]3(O)C(O)=C1C2=O  Mean accuracy (%), Table S15           %             87.2
3  CO/N=C(\C(=O)N[C@@H]1C(=O)N2C(C(=O)[O-])=C(C[N+]3(C)CCCC3)CS[C@H]12)c1csc(N)n1 [Cefepime, cefepime]  Mean accuracy (%), Table S15           %             95.3
4  C[C@H]1[C@H](NC(=O)/C(=N\OC(C)(C)C(=O)O)c2csc(N)n2)C(=O)N1S(=O)(=O)O  Mean accuracy (%), Table S15           %            102.6

Query: Consider the compound shown here: NC(=O)[C@@H]1CC[C@@H]2CN1C(=O)N2OS(=O)(=O)O What is its recorded Mean accuracy (%), Table S15?
Result: 90.4

Query: For the compound shown here, C[C@@H]1O[C@@H]1P(=O)(O)O , give the reported Mean accuracy (%), Table S15.
Result: 98.5

Query: Bench note: what Mean accuracy (%), Table S15 did Cn1c(N)c(NC(=O)NCCN)c[n+]1CC1=C(C(=O)O)N2C(=O)[C@@H](NC(=O)/C(=N\OC(C)(C)C(=O)[O-])c3nsc(N)n3)[C@H]2SC1 show?
Result: 93.2

Query: What does the record list as Mean accuracy (%), Table S15 for CCN1CCN(C(=O)N[C@@H](C(=O)N[C@@H]2C(=O)N3[C@@H]2SC(C)(C)[C@@H]3C(=O)O)c2ccccc2)C(=O)C1=O ?
Result: 89.0

Query: Given C[C@@H](O)[C@H]1C(=O)N2C(C(=O)O)=C(S[C@@H]3CN[C@H](CNS(N)(=O)=O)C3)[C@H](C)[C@H]12 , state its recorded Mean accuracy (%), Table S15.
Result: 82.4

# credit: paper PMC8772704
